Recorded IC50 by entry
Target: GPR17 (Homo sapiens)
Sequence (Q13304 whole entry): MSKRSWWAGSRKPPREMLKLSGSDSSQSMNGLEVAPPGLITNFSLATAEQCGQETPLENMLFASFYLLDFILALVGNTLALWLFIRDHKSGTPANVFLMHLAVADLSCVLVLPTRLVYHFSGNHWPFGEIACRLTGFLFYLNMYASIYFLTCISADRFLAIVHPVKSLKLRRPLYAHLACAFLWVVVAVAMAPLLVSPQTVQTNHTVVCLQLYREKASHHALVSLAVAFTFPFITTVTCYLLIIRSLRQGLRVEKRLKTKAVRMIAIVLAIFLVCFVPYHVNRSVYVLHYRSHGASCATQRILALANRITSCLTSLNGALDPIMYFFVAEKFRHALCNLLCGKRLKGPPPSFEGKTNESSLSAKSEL
Assay: Calcium mobilization functional assay (GPR17 Ca2+ assay)
Assay type: cell-based
Parameters: host or cells: Flp-In T-REx CHO
Settings: CHO hGPR17 cells, inhibition of 50 nM MDL29,951, Calcium 5 dye, FLIPR; read-out: Ca2+ assay pIC50 (converted)

{"columns": ["SMILES DATA", "TARGET DESC", "IC50"],
 "data": [
  ["O=S(=O)(Nc1cc(F)c(OCC2CC2)cc1F)c1c[nH]c2cc(Cl)ccc12", "GPR17 (Homo sapiens)", "3.16 to 31.6 nM"],
  ["O=S(=O)(Nc1ccccc1F)c1c[nH]c2cc(Cl)ccc12", "GPR17 (Homo sapiens)", "> 31.6 nM"],
  ["O=S(=O)(Nc1cccc(F)c1Cl)c1c[nH]c2nc(Br)ccc12", "GPR17 (Homo sapiens)", "3.16 to 31.6 nM"],
  ["Cc1cc2c(S(=O)(=O)Nc3ccc(C#N)cc3)c[nH]c2cc1Br", "GPR17 (Homo sapiens)", "3.16 to 31.6 nM"],
  ["O=S(=O)(Nc1cc(F)c(C(F)(F)F)cc1F)c1c[nH]c2nc(Cl)ccc12", "GPR17 (Homo sapiens)", "< 3.16 nM"],
  ["O=S(=O)(Nc1cc(F)c(F)cc1F)c1c[nH]c2nc(Br)ccc12", "GPR17 (Homo sapiens)", "3.16 to 31.6 nM"],
  ["O=S(=O)(Nc1cc(F)c(Cl)cc1F)c1c[nH]c2c(F)c(Cl)ccc12", "GPR17 (Homo sapiens)", "3.16 to 31.6 nM"],
  ["CS(=O)(=O)c1ccc2c(S(=O)(=O)Nc3ccc(Cl)cc3F)c[nH]c2c1", "GPR17 (Homo sapiens)", "3.16 to 31.6 nM"],
  ["N#CCc1cc(F)c(NS(=O)(=O)c2c[nH]c3c2ccc2cccnc23)cc1F", "GPR17 (Homo sapiens)", "< 3.16 nM"],
  ["C#Cc1ccc(NS(=O)(=O)c2c[nH]c3c2ccc2cccnc23)c(F)c1", "GPR17 (Homo sapiens)", "3.16 to 31.6 nM"],
  ["COc1nc(NS(=O)(=O)c2c[nH]c3cc(N=[N+]=[N-])ccc23)c(F)cc1CC#N", "GPR17 (Homo sapiens)", "< 3.16 nM"],
  ["COc1nc(NS(=O)(=O)c2c[nH]c3nc(Cl)ccc23)c(F)cc1Cl", "GPR17 (Homo sapiens)", "< 3.16 nM"],
  ["COc1ccc2c(S(=O)(=O)Nc3cc(F)c(C#N)cc3OC)c[nH]c2c1", "GPR17 (Homo sapiens)", "< 3.16 nM"],
  ["COc1nc(NS(=O)(=O)c2c[nH]c3c(F)c(Cl)ccc23)c(F)cc1Cl", "GPR17 (Homo sapiens)", "< 3.16 nM"],
  ["O=S(=O)(Nc1ccc2n[se]nc2c1)c1c[nH]c2cc(Cl)ccc12", "GPR17 (Homo sapiens)", "3.16 to 31.6 nM"],
  ["COCCCc1cc(F)c(NS(=O)(=O)c2c[nH]c3cc(Br)ccc23)nc1F", "GPR17 (Homo sapiens)", "< 3.16 nM"],
  ["COc1nc(NS(=O)(=O)c2c[nH]c3cc(Cl)c(Br)cc23)c(F)cc1CC#N", "GPR17 (Homo sapiens)", "< 3.16 nM"]
]}

Origin of measurements: patent US12071404B2
